TARGET OR SYSTEM: ALK (Homo sapiens)
Sequence (Q9UM73 19-1620): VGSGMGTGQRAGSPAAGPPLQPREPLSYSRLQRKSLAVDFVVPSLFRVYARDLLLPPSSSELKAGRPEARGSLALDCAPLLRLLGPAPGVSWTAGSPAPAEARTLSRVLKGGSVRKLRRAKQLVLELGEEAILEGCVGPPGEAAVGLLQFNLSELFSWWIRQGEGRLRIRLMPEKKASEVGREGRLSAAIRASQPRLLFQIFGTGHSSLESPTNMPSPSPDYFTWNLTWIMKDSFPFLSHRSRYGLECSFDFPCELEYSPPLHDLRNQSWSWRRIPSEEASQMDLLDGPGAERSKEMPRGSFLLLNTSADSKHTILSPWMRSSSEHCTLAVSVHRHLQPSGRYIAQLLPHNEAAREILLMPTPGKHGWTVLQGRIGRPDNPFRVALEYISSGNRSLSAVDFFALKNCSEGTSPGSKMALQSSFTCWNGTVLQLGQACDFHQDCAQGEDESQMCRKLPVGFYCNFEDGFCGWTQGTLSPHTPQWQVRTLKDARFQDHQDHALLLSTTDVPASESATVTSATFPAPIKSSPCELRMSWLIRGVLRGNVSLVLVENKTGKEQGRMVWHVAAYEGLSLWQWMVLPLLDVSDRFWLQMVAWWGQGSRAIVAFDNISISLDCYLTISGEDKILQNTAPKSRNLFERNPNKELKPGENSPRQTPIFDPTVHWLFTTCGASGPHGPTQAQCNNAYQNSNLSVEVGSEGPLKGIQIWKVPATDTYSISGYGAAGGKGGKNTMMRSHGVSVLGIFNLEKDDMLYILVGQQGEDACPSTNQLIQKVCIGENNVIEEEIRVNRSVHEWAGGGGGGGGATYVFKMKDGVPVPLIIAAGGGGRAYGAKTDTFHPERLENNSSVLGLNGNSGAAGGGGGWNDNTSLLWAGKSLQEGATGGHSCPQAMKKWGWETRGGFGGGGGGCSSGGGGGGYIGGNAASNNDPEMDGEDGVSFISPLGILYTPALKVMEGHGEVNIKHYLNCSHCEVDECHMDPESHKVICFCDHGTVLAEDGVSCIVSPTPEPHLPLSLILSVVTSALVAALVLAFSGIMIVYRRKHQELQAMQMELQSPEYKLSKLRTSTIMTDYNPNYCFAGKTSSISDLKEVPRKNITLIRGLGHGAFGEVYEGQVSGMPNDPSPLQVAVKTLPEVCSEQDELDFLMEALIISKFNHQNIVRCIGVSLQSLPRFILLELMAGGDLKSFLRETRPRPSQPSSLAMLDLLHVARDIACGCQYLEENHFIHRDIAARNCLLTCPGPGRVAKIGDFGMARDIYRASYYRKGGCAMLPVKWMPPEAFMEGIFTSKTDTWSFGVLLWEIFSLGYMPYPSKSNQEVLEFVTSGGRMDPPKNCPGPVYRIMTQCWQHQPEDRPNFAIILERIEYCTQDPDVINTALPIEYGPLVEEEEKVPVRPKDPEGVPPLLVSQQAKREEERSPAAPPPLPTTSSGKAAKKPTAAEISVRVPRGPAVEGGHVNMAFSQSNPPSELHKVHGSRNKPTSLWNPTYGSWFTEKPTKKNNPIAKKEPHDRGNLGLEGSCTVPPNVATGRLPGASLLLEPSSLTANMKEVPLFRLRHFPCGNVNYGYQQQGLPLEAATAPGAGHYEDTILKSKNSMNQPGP
IC50 listing for selected molecules.

Query :: Read the entry "CN(C)CC(=O)Nc1ccc(Cl)c(Nc2nc(Nc3ccccc3C(N)=O)c3cc[nH]c3n2)c1" and write its reported IC50.
Result :: 1.26 to 3.98 nM

Query :: Read the entry "Cc1ccc(NC(=O)CN(C)C)cc1Nc1nc(Nc2cc(Cl)ccc2C(N)=O)c2cc[nH]c2n1" and write its reported IC50.
Result :: 5.01 to 200 nM

Query :: Read the entry CCC(C)N1CCc2cc(OC)c(Nc3nc(Nc4cccc(F)c4C(=O)NC)c4cc[nH]c4n3)cc2C1 (stereo not shown) and write its reported IC50.
Result :: 1.26 to 3.98 nM

Query :: Read the entry CCCN1CCCC(c2ccc(Nc3nc(Nc4cc(F)ccc4C(N)=O)c4cc[nH]c4n3)c(OC)c2)C1 (stereo not shown) and write its reported IC50.
Result :: 0.251 to 1 nM
